The measured values listed here are drawn from patent US8293769B2.

Target: cytoplasmic domain of the human CSF-1R (Homo sapiens, UniProt P07333)
Construct: Recombinant protein corresponding to the cytoplasmic domain of the human CSF-1R; purchased Invitrogen Corporation, Carlsbad, Calif; PV3249
Sequence (P07333 539-972 limits assumed): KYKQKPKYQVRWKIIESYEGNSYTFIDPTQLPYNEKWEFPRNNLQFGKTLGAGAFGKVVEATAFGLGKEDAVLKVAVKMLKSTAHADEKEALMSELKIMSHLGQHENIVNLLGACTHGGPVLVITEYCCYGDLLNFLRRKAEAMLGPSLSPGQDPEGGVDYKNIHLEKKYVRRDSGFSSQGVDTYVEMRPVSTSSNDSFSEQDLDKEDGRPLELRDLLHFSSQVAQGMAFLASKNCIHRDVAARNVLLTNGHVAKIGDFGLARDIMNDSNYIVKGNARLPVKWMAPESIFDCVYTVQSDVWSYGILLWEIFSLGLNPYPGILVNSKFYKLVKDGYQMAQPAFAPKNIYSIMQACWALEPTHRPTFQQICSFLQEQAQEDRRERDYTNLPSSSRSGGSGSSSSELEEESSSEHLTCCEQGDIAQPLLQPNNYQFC
Assay: In vitro kinase assay for CSF-1R (AlphaScreen)
Format: biochemical
Details: tested at about 1 μM; read-out: CSF1RK 1 percent inhibition
result-type: inhibition at 1 µM (%)

CC(=O)NCCNc1nccc(Oc2ccc3nc(NCC4CCCCC4)sc3c2)n1	89
O[C@@H]1CCCC[C@H]1Nc1nc2ccc(Oc3cncc(-c4cscn4)c3)cc2s1	100
CC(C)(C)OC(=O)N1CC=C(c2cncc(Oc3ccc4nc(N[C@@H]5CCCC[C@H]5O)sc4c3)c2)CC1	100
O[C@@H]1CCCC[C@H]1Nc1nc2ccc(Oc3cncc(-c4cn[nH]c4)n3)cc2s1	100
CCCn1cc(-c2cncc(Oc3ccc4nc(N[C@@H]5CCCC[C@H]5O)sc4c3)n2)cn1	100
COc1cncc(-c2cncc(Oc3ccc4nc(N[C@@H]5CCCC[C@H]5O)sc4c3)c2)c1	100
C[C@H](Nc1nc2ccc(Oc3ccnc(-c4cccnc4)n3)cc2s1)C1CCCCC1	100
O[C@@H]1CCCC[C@H]1Nc1nc2ccc(Oc3cncc(-c4cccnc4)n3)cc2s1	100
CNc1cc(Oc2ccc3nc(NCC4CCCCC4)sc3c2)ncn1	98
CNC(=O)c1ccncc1Oc1ccc2nc(NCC3CCCCC3)sc2c1	95
O[C@@H]1CCCC[C@H]1Nc1nc2ccc(Oc3cncc(C4=CCNCC4)c3)cc2s1	96
C[C@H](Nc1nc2ccc(Oc3cc(-n4cncn4)ncn3)cc2s1)C1CCCCC1	99
Cn1cc(-c2cncc(Oc3ccc4nc(N[C@@H]5CCCC[C@H]5O)sc4c3)c2)cn1	100
O[C@@H]1CCCC[C@H]1Nc1nc2ccc(Oc3cnccc3Cl)cc2s1	100
Cn1nccc1-c1nccc(Oc2ccc3nc(N[C@@H]4CCCC[C@H]4O)sc3c2)n1	100

----------
target: cKIT (Homo sapiens, UniProt P10721); construct: The kinase domain of cKIT was assayed in 50 mM Hepes; purchased Upstate 14-559; test: cKIT kinase in vitro biochemical assay (alphascreen); conditions: tested at about 1 μM; read-out: CKIT percent inhibition
Sequence (P10721 589-937 limits assumed): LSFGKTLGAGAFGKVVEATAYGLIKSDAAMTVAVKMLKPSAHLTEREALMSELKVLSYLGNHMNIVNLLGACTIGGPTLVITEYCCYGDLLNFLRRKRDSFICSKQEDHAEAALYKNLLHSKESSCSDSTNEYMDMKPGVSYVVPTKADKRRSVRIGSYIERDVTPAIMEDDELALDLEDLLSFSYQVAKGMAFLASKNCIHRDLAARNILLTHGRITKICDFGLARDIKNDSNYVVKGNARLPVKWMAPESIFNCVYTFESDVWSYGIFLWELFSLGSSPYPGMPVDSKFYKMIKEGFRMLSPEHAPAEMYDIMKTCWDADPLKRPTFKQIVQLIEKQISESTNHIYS
result-type: inhibition at 1 µM (%)

In the examples that follow, each entry is paired with its recorded inhibition at 1 µM.
CNC(=O)c1ccc(Oc2ccc3nc(NCC4CCCCC4)sc3c2)cn1 [Compound 48]	22
Cn1ncc2c(Oc3ccc4nc(NCC5CCCCC5)sc4c3)ncnc21 [Compound 44]	14
C[C@H](Nc1nc2ccc(Oc3cncc(-n4cncn4)n3)cc2s1)C1CCCCC1 [Compound 40]	32
c1cc(-n2cncn2)cc(Oc2ccc3nc(NCC4CCCCC4)sc3c2)n1 [Compound 24]	7
c1nc(Oc2ccc3nc(NCC4CCCCC4)sc3c2)c2sccc2n1 [Compound 38]	99

I: CNC(=O)c1cncc(Oc2ccc3nc(N[C@@H](C)C4CCCCC4)sc3c2)n1 [Compound 51]
II: O[C@@H]1CCCC[C@H]1Nc1nc2ccc(Oc3cnc(Cl)c(-c4cccnc4)c3)cc2s1 [Compound 105]
III: O[C@@H]1CCCC[C@H]1Nc1nc2ccc(Oc3cncc(-c4cscn4)c3)cc2s1 [Compound 69]
Q: Order the records so the highest inhibition at 1 µM appears first and the lowest last. API: response body holds the labels in the requested order.
Ans: III, I, II
(III: 97%, I: 32%, II: 9%)

P: O[C@@H]1CCCC[C@H]1Nc1nc2ccc(Oc3cnc(-c4cccnc4)c(-c4cccnc4)c3)cc2s1 [Compound 109]
Q: C[C@H](Nc1nc2ccc(Oc3ccnc(-c4ccncc4)n3)cc2s1)C1CCCCC1 [Compound 32]
Q: Lowest inhibition at 1 µM? choose P or Q Respond with the label that goes with your answer.
Ans: P
(P: 11%, Q: 30%)

----------
biological target: PDGFRb (Homo sapiens, UniProt P09619); construct: The kinase domain of PDGFRβ was assayed in 50 mM Hepes; purchased Invitrogen P3082; test: PDGFRb kinase in vitro biochemical assay (alphascreen); settings: tested at about 1 μM; read-out: PDGF RK BETA percent inhibition
Sequence (P09619 600-962 limits assumed): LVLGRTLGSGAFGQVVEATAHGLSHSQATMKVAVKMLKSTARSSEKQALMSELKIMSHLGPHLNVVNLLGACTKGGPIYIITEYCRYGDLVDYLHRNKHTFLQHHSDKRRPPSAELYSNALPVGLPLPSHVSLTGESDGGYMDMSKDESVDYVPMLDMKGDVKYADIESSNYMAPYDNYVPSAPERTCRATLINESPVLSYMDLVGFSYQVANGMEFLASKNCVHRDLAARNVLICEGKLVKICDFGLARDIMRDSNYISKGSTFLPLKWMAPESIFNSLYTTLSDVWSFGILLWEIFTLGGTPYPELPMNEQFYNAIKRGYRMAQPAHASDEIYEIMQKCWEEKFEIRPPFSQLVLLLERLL
result-type: inhibition at 1 µM (%)

Below are worked cases with known answers.
Clc1ccncc1Oc1ccc2nc(NCC3CCCCC3)sc2c1	34
O[C@@H]1CCCC[C@H]1Nc1nc2ccc(Oc3cncc(-n4cncn4)n3)cc2s1	10
O[C@@H]1CCCC[C@H]1Nc1nc2ccc(Oc3cncc(-c4cnn(CC(F)F)c4)c3)cc2s1	0
Cn1cc(-c2cc(Oc3ccc4nc(N[C@@H]5CCCC[C@H]5O)sc4c3)ncn2)cn1	11
O[C@@H]1CCCC[C@H]1Nc1nc2ccc(Oc3cncc(-c4ccc(F)cc4)c3)cc2s1	8
Cn1ncc2c(Oc3ccc4nc(NCC5CCCCC5)sc4c3)ncnc21	19
C[C@H](Nc1nc2ccc(Oc3cc(-n4cncn4)ccn3)cc2s1)C1CCCCC1	0
C[C@H](Nc1nc2ccc(Oc3ccnc(Cl)n3)cc2s1)C1CCCCC1	0

A: O[C@@H]1CCCC[C@H]1Nc1nc2ccc(Oc3cncc(-c4ccc(N5CCOCC5)nc4)c3)cc2s1
B: O[C@@H]1CCCC[C@H]1Nc1nc2ccc(Oc3cncc(Br)c3)cc2s1
Q: // compare measured inhibition at 1 µM between A and B ; output the lower one Refer to your chosen item by its label in the answer.
Ans: B
(B: 5%, A: 10%)

P: Clc1cc(Oc2ccc3nc(NCC4CCCCC4)sc3c2)ncn1
Q: Nc1cc(Oc2ccc3nc(N[C@@H]4CCCC[C@H]4O)sc3c2)ncn1
Q: Of the two listed items, which has the higher inhibition at 1 µM? First: P Second: Q When you have decided, please share the label of that item.
Ans: P

a: CNC(=O)c1cc(Oc2ccc3nc(NCC4CCCCC4)sc3c2)nc(OC)n1
b: C[C@H](Nc1nc2ccc(Oc3cc(-n4cncn4)ncn3)cc2s1)C1CCCCC1
c: O[C@@H]1CCCC[C@H]1Nc1nc2ccc(Oc3cncc(-c4cnn(CCN5CCOCC5)c4)c3)cc2s1
d: c1cc(-n2cncn2)cc(Oc2ccc3nc(NCC4CCCCC4)sc3c2)n1
Q: Rank the items in ascending order with respect to inhibition at 1 µM. Write the labels in rank order as requested.
Ans: b, a, d, c
(b: 0%, a: 5%, d: 9%, c: 16%)

P: Cn1cc(-c2cc(Oc3ccc4nc(N[C@@H]5CCCC[C@H]5O)sc4c3)cnc2Cl)cn1
Q: O[C@@H]1CCCC[C@H]1Nc1nc2ccc(Oc3cccnc3)cc2s1
Q: Recorded inhibition at 1 µM values differ for P and Q ; which one is higher? Please indicate the selected item by its label.
Ans: Q

----------
molecular target: PDGFRb (Homo sapiens, UniProt P09619); construct: The kinase domain of PDGFRβ was assayed in 50 mM Hepes; purchased Invitrogen P3082; assay: PDGFRb kinase in vitro biochemical assay (alphascreen); conditions: tested at about 1 μM; read-out: PDGF RK BETA percent inhibition
result-type: inhibition at 1 µM (%)

Worked set:
c1cc(Oc2ccc3nc(NCC4CCCCC4)sc3c2)nc(N2CCOCC2)n1 [Compound 15]	16
C[C@H](Nc1nc2ccc(Oc3ccnc(-c4ccncc4)n3)cc2s1)C1CCCCC1 [Compound 32]	14

1: Cn1cc(-c2cncc(Oc3ccc4nc(N[C@@H]5CCCC[C@H]5O)sc4c3)c2)cn1 [Compound 46]
2: N#Cc1ccc(-c2cncc(Oc3ccc4nc(N[C@@H]5CCCC[C@H]5O)sc4c3)c2)cn1 [Compound 73]
Q: When 1 and 2 are compared, which has the higher number for inhibition at 1 µM? Write down the label of the entry you select.
Ans: 1
(1: 12%, 2: 3%)
